Target: T1, A beta oligomer (synthetic A beta1-40, HCl form, 0.1 mg/ml in PBS, incubated at 37 degrees C for one hour) (UniProt P05067 672-711)
T1 construct: domain: A beta1-40; non-fibrous multimer of the peptide; also called A beta 1-40 oligomer
Assay: SPR (Biacore 3000)
Criterion: koff strictly under 0.01 s⁻¹. Met: Fulfilled. Not met: Not fulfilled.

A record lists IR-110 antibody (antibody, mouse IgG2b, V domains shown, mouse IgG2b) VH: DVQLVESGGGLVQPGGSRKLSCAASGFTFSSFGMHWVRQAPEKGLEWVAYISSGSSTIYYADTVKGRFTISRDNPKNTLFLQMTSLRSEDTAMYYCASYGNYGAYWGQGTLVTVSA VL: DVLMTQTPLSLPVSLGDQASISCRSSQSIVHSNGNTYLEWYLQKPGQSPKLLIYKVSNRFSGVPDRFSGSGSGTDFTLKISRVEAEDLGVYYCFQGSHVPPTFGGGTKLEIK . Is its koff below 0.01 s⁻¹?
Not fulfilled

Here is the next binder: IR-154 antibody (antibody, V domains shown, mouse IgG2a) VH: DVQLVESGGGLVQPGGSRKLSCAASGFSFSSFGMHWVRQAPEKGLEWVAYISSGRSTIYYADTVKGRFTISRDNPKNTLFLQMTSLRSEDTAMYYCARLRGNLDYAMDYWGQGTSVTVSS VL: DVVMTQTPLSLPVSLGDQASISCRSSQSLVHSNGNTYLHWYLQKPGQSPKLLIYKVSNRFSGVPDRFSGSGSGTDFTLKISRVEAEDLGVYFCSQSTHVPFTFGSGTKLEIK
Not fulfilled

Here is the next binder: IR-037 antibody (antibody, mouse IgG1, V domains shown, mouse IgG1) VH: DVQLVESGGGLVQPGGSRKLSCAASGFTFSSFGMHWVRQAPEKGLEWVAYISSGSSTIYYADTVKGRFTISRDNPKNTLFLQMTSLRSEDTAMYYCARDGTMDYWGQGTSVTVSS VL: DAVMTQTPLSLPVSLGDQASISCRSSQSLENSNGNTYLNWYLQKPGQSPQLLIYRVSNRFSGVLDRFSGSGSGTDFTLKISRVEAEDLGVYFCLQVTHVPPTFGGGTKLEIK
Not fulfilled

Here is the next binder: IR-108 antibody (antibody, mouse IgG2a, V domains shown, mouse IgG2a) VH: QVTLKESGPGILKPSQTLSLTCSFSGFSLSTSGMGVGWIRQPSGKGLEWLAHIWWDDDKYYNPSLKSQLTISKDTSRNQVFLKITSVDTADTATYYCARRGLRRGDYFDYWGQGTTLTVSS VL: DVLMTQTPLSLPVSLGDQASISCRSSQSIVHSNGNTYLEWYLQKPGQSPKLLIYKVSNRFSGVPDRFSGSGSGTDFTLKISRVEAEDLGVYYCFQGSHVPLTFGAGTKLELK
Fulfilled
